The molecules listed here are annotated with their IC50.
- TARGET: skeletal myofibrils (myosin ATPase)
- MEASUREMENT_DESCRIPTION: Skeletal Myofibril ATPase Assay
- Assay type: biochemical
- CONDITION_DETAILS: Table 4A

Answered examples (7):
CCNC(=O)Cn1nc(-c2ccc(OCC3(C)COC3)nc2)ccc1=O ... 10 to 100 µM
O=C(Cn1nc(-c2ccc(OCC(F)(F)F)nc2)ccc1=O)NC1CCC1 ... < 10 µM
CCNC(=O)Cn1nc(-c2ccc(C3CC3)nc2)ccc1=O ... 10 to 100 µM
CCNC(=O)Cn1nc(-c2ccc(NC3CC(F)(F)C3)nc2)ccc1=O ... 10 to 100 µM
CC(C)[C@@](C)(C#N)NC(=O)Cn1nc(-c2ccc(OC(F)F)nc2)ccc1=O (stereo in doubt) ... 10 to 100 µM
CCNC(=O)Cn1nc(-c2ccc(N(C)C34CC(C3)C4)nc2)ccc1=O ... < 10 µM
CCNC(=O)Cn1nc(-c2ccc(OCCC(F)(F)F)nc2)ccc1=O ... 10 to 100 µM

Proceeding to the next molecule to report its IC50.
Query string: Given C[C@H](NC(=O)Cn1nc(-c2ccc(OC(F)F)nc2)ccc1=O)c1ccnn1C , state its recorded IC50.
Result string: > 100 µM

* * *

The compounds listed here are annotated with their pIC50.
- TARGET: skeletal myofibrils (myosin ATPase)
- MEASUREMENT_DESCRIPTION: Skeletal Myofibril ATPase Assay
- Format: biochemical
- CONDITION_DETAILS: Table 4C
pIC50: −log10 of the molar value.

Answered examples (4):
COc1ccc(NC(=O)Cn2nc(-c3ccc(F)cc3)ccc2=O)c(OC)c1 ... 4.00 to 5.00
CC(CCNC(=O)Cn1nc(-c2ccccc2)ccc1=O)c1ccccc1 (centres unmarked) ... 4.00 to 5.00
COc1ccc(-c2ccc(=O)n(CC(=O)NCCC(C)C)n2)c(F)c1 ... < 4.00
Cn1ccc2c(NC(=O)Cn3nc(-c4ccc(Cl)cc4)ccc3=O)cccc21 ... > 5.00

Proceeding to the next compound to report its pIC50.
Query string: Given COc1ccc(-c2ccc(=O)n(CC(=O)NCc3ccccn3)n2)cc1 , state its recorded pIC50.
Result string: < 4.00

* * *

- TARGET: skeletal myofibrils (myosin ATPase)
- MEASUREMENT_DESCRIPTION: Skeletal Myofibril ATPase Assay
- Assay type: biochemical
- CONDITION_DETAILS: Table 4A
The compounds listed here are annotated with their IC50.

Answered examples (5):
O=C(Cn1nc(-c2cnc(OCCOC(F)(F)F)nc2)ccc1=O)NC1CCC1 [Compound I-72] ... < 10 µM
CCNC(=O)Cn1nc(-c2ccc(N3CC(COC(F)(F)F)C3)nc2)ccc1=O [Compound I-40] ... 10 to 100 µM
O=C(Cn1nc(-c2cnc(OCC(F)(F)F)nc2)ccc1=O)NC12CC(C1)C2 [Compound I-51] ... < 10 µM
O=C(Cn1nc(-c2ccc(OC(F)F)nc2)ccc1=O)NC1(c2ccccc2)CCC1 [Compound I-68] ... < 10 µM
CCNC(=O)Cn1nc(-c2ccc(N3CC(C)(C)C3)nc2)ccc1=O [Compound I-18] ... 10 to 100 µM

Proceeding to the next compound to report its IC50.
Query string: Look up IC50 with skeletal myofibrils (myosin ATPase) for this compound: CCNC(=O)Cn1nc(-c2ccc(NC(C)(C)C)nc2)ccc1=O [Compound I-53]
Result string: < 10 µM
